Data provenance is paper PMC10511788.

- system: T1, M1-linked di-ubiquitin (UniProt P0CG48 1-76; P0CG48 1-76)
- T1 construct: ubiquitin, distal (N-terminal) moiety, M1-G76, its G76 joined by a peptide bond to M1 of the next moiety; ubiquitin, proximal (C-terminal) moiety, M1-G76, with the free C-terminal carboxylate; Two ubiquitin units head to tail on one chain; also called linear di-Ub; linear (head-to-tail) di-Ub
- assay: ITC; 298 K, MicroCal iTC200; linear di-Ub (1 mM) in the syringe, HOIL-1L NZF (100 uM) in the cell (several experiments at half of these); 20 mM HEPES pH 7.0, 50 mM sodium chloride, 1 mM TCEP; one set of sites model; three independent experiments
- condition-info: both partners purified
measured-quantity: Kd (µM)

INSERT INTO assay_data (binder, measured_quantity, readout_units, assay_result) VALUES
  ('mouse HOIL-1L NZF domain (residues Pro192-Gln250) T207D (domain or fragment, HOIL-1L, mouse, NZF domain with tail, residues Pro192-Gln250, point mutant T207D; Point mutation made by PCR on the plasmid of m1; also called phosphomimetic HOIL-1L NZF; T207D HOIL-1L NZF; source: E. coli, autoinduction in N-5052 media, purified; not shown: GST, N-terminal, cleaved) GPLGSPEPVGWQCPGCTFINKPDRPGCEMCCRARPETYQIPASYQPDEEERARLAGEEEALRQYQQ', 'Kd', 'µM', 10.3);
